Listing of recorded PBM binding z-score by entry.
# Test system: RARb:RXRa (NR concentration 270 nM, RXRa partner concentration 90 nM)
# assay.info: PBM binding z-score (relative to random genomic background probes); higher = stronger binding; sequences stand for … in GC…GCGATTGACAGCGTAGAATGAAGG

residue.string: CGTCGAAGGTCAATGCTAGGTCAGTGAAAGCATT
PBM binding z-score: 5.19

residue.string: CAAACTAGGTCACGAAAGGGCAAAGTCGAATGAC
PBM binding z-score: 4.99

residue.string: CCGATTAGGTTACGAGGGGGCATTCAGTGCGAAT
PBM binding z-score: 2.49

residue.string: CTATGTAGGCTAAGGGGGTCATTCAGTTTGAAAG
PBM binding z-score: 2.69

residue.string: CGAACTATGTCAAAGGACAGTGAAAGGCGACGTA
PBM binding z-score: 1.45

residue.string: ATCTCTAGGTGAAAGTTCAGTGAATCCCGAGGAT
PBM binding z-score: 3

residue.string: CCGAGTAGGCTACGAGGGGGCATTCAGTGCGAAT
PBM binding z-score: 0.81

residue.string: CGTCAACGTTCAACTAAGGTAACGTAAAGCACGC
PBM binding z-score: 0.991

residue.string: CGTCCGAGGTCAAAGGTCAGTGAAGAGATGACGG
PBM binding z-score: 5.93

residue.string: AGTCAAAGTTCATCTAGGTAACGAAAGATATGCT
PBM binding z-score: 5.15

residue.string: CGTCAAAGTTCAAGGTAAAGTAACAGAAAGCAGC
PBM binding z-score: 4.95

residue.string: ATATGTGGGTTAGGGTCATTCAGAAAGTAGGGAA
PBM binding z-score: 3.45

residue.string: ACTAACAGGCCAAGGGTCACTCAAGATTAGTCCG
PBM binding z-score: 3.57

residue.string: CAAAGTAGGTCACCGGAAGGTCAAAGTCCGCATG
PBM binding z-score: 5.39

residue.string: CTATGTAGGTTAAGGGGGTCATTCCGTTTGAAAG
PBM binding z-score: 3.33

residue.string: TCTCGGAGGACACGAAAGGTCAGAACTCGACATC
PBM binding z-score: 3.83

residue.string: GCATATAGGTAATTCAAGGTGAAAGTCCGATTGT
PBM binding z-score: 0.678

residue.string: CCTCGGAGGACAACAGGATGTCAGAGCTGCCAGA
PBM binding z-score: 1.13

residue.string: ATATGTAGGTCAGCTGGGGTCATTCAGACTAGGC
PBM binding z-score: 4.57

residue.string: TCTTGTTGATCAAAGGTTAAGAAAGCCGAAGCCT
PBM binding z-score: 2.04

residue.string: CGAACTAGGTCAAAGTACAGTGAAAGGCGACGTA
PBM binding z-score: 3.84

residue.string: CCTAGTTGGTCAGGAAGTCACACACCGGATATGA
PBM binding z-score: 0.892

residue.string: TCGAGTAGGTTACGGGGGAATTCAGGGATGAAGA
PBM binding z-score: 1.62

residue.string: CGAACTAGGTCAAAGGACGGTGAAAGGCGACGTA
PBM binding z-score: 3.76

residue.string: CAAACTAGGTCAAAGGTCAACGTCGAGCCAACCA
PBM binding z-score: 5.88

residue.string: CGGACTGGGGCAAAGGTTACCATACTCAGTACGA
PBM binding z-score: 2.42
